Value source: PubChem BioAssay AID1918932

Test system: 171881-019-R-J1-PDC complex spheroid viability;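 further: spheroids exposed to agents for 7 days after 3 days growth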
assay.notes: Anticancer human tumor 171881-019-R-J1-PDC patient-derived invasive breast carcinoma cell line growth inhibition; active means viability on the fitted dose curve at most 10% of control; inactive means the rest
condition.set: second compound 10 µM; first compound 0.00316 µM
The reply should be one of these categories: 1.0 (active), 0.0 (inactive)

Query :: // param item: CC(C)CC(NC(=O)C(Cc1ccccc1)NC(=O)c1cnccn1)B(O)O (stereo not given) + NC1CCC(NC2CC2c2ccccc2)CC1 ; yields the recorded call
Result :: 1.0

Query :: // param item: CC1COCCN1c1cc(-c2ccnn2C)c2ccnc(-c3ccn[nH]3)c2n1 (stereo not given) + NC1CC1c1ccc(-c2cccc(O)c2)cc1 ; yields the recorded call
Result :: 0.0

Query :: // param item: CC(C)CC(NC(=O)CNC(=O)c1cc(Cl)ccc1Cl)B1OC(=O)CC(CC(=O)O)(C(=O)O)O1 (stereo not given) + NC1CC1c1ccc(-c2cccc(O)c2)cc1 ; yields the recorded call
Result :: 1.0

Query :: // param item: COc1cc(Nc2ncc3c(n2)-c2ccc(Cl)cc2C(c2c(F)cccc2OC)=NC3)ccc1C(=O)O + NC1CC1c1ccc(-c2cccc(O)c2)cc1 ; yields the recorded call
Result :: 0.0

Query :: // param item: Nc1ncn(C2CC(O)C(CO)O2)c(=O)n1 (stereo not given) + NC1CCC(NC2CC2c2ccccc2)CC1 ; yields the recorded call
Result :: 0.0
